- system-under-test: PIK3CG;PIK3CA (human) (UniProt P48736)
- Sequence (P48736 whole entry, looked up): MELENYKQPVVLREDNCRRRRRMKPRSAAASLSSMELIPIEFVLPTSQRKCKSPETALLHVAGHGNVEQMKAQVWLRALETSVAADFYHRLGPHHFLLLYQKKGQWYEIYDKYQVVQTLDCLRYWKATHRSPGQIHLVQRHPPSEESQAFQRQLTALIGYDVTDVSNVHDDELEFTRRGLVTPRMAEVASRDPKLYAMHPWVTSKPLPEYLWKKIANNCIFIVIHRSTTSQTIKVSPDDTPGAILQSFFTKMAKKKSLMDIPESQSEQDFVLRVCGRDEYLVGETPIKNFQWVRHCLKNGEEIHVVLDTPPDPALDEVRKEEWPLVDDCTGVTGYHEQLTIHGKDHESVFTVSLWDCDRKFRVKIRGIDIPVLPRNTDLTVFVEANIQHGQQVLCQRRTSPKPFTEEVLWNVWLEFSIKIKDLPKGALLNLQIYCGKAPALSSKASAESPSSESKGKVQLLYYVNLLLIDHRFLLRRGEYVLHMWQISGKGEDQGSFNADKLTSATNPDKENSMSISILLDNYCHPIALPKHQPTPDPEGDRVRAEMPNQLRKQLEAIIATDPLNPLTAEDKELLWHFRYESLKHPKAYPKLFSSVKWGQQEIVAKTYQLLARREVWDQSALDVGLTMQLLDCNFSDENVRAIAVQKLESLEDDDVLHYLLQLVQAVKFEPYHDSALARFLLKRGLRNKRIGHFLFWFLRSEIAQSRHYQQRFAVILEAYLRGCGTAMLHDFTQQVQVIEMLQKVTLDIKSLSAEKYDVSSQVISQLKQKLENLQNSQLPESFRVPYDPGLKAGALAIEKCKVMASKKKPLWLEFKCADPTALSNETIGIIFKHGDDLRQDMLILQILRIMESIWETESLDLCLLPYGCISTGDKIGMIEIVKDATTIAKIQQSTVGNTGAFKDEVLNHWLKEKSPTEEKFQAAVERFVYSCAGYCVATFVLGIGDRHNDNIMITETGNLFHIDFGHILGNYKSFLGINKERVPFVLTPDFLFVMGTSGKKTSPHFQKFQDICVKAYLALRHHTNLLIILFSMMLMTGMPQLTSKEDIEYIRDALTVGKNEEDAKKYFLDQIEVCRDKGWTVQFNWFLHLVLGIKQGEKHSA
- procedure-details: Assessment of Antiproliferation Activity in PC3-MM2 Cells
- condition-details: pc3mm2
pIC50: −log10 of the molar value.
reported-property: pIC50

Here's what some known entries look like.
CC(C)N1CCN(C(=O)c2ccc(NC(=O)Nc3ccc(-c4nc(N5CCCCC5)nc(N5CCOCC5)n4)cc3)cc2)CC1
6.71
O=C(Nc1ccc(C(=O)Cc2ccccn2)cc1)Nc1ccc(-c2nc(N3CCOCC3)nc(N3CCOCC3)n2)cc1
7.51

[P] O=C(Nc1ccc(C(=O)NCCN2CCCC2)cc1)Nc1ccc(-c2nc(O[C@H]3CCOC3)nc(N3CCOCC3)n2)cc1
[Q] C[C@H]1COCCN1c1nc(-c2ccc(NC(=O)Nc3ccc(C(=O)NCCN4CCCC4)cc3)cc2)nc(N2CCOC[C@@H]2C)n1
[R] Cc1ccc(-c2nc(-c3ccc(NC(=O)Nc4ccc(C(=O)N5CCCC5)cc4)cc3)nc(N3CCOCC3)n2)cc1
[S] CN(C)C1CCN(C(=O)c2ccc(NC(=O)Nc3ccc(-c4nc(-c5ccccc5)nc(N5CCOCC5)n4)cc3)cc2)CC1
Returns the items ordered by pIC50, from maximum to minimum. Sort the labels as requested; that list is your answer. P, Q, S, R
(P: 7.57, Q: 6.97, S: 6.60, R: 6.28)
